Recorded IC50 by entry
- target.under.test: HLA-B*0702 (human)
- assay.protocol: competition vs 125I probe peptide, purified HLA

{"columns": ["binder", "IC50 (nM)"],
 "data": [
  ["FPILTIITL [p53.249.F1]", 6.5],
  ["FPILTIITI [p53.249.F1I9]", 74]
]}

Attribution: patent US20040048790A1
